# Target Desc: Mitogen-activated protein kinase kinase kinase 5 (Homo sapiens)
# Sequence (Q99683 whole entry): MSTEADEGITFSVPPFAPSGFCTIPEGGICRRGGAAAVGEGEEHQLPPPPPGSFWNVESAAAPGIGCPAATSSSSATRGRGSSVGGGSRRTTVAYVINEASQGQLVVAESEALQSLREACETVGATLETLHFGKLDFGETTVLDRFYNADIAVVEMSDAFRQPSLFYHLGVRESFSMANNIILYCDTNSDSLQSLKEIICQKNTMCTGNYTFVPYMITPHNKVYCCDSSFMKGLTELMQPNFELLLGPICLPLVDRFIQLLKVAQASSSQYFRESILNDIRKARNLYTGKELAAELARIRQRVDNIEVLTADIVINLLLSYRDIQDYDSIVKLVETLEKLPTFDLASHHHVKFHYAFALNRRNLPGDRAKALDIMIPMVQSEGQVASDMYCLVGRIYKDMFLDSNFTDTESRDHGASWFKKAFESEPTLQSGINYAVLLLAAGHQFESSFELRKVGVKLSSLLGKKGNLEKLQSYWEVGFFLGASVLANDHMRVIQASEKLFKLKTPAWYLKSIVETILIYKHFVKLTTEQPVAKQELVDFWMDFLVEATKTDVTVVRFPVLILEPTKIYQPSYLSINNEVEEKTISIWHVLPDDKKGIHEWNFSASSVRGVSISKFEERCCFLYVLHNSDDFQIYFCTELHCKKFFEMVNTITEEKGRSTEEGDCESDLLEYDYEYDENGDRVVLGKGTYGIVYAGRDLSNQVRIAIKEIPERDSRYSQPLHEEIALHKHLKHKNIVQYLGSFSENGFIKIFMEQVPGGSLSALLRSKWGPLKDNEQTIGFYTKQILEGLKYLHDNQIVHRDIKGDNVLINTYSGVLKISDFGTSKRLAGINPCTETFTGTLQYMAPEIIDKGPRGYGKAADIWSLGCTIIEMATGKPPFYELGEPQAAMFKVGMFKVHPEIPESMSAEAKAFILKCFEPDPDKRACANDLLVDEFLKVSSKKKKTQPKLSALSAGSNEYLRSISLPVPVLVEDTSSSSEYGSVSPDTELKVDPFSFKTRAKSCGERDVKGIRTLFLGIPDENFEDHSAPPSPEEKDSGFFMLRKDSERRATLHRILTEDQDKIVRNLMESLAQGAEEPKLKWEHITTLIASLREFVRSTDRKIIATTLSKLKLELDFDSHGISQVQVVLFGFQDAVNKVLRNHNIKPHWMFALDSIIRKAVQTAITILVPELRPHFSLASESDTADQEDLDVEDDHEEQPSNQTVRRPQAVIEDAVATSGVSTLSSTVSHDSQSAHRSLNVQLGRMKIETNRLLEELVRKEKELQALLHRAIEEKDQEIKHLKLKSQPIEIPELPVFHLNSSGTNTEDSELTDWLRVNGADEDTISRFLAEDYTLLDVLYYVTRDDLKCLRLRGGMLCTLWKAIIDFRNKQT
# Assay Procedure: HTRF KinEASE Assay : ASK1 was purchased from Thermofisher (Catalogue #PV4011), ATP was purchased from Sigma (Catalogue #A7699), HTRF® KinEASE Assay System was obtained from Cisbio (Bedford, Mass.). ½ Area plate was purchased from Perkin Elmer (Catalogue ##6005560). HTRF® KinEASE-STK is a generic method for measuring serine/threonine kinase activities using a time-resolved fluorescence resonance energy transfer (TR-FRET) immunoassay. The IC50 value for each compound was determined in the presence of compound (various concentration from 0 to 10 μM) and a fixed amount of ATP and peptide substrates. The test compound, 1 μM STK3 peptide substrate, and […] are incubated with kinase reaction buffer containing 50 mM HEPES Ph 7.5, 0.01% BRIJ-35, 10 mM MgCl2, and 1 mM EGTA for 30 minutes. 100 μM ATP is added to start kinase reaction and incubated for 3 hours. The STK3-antibody labeled with Eu3+-Cryptate and 125 nM streptavidin-XL665 are mixed in a single addition with stop reagents provided by the Cisbio kit used to stop the kinase reaction. Fluorescence is detected using an Envision Multilabeled 2014 reader from PerkinElmer. The Fluorescence is measured at 615 nm (Cryptate) and 665 nm (XL665) and a ratio of 665 nm/615 nm is calculated for each well. The resulting TR-FRET is proportional to the phosphorylation level. Staurosporine was used as the positive control. IC50 was determined by Xlfit 5.3.
Recorded measurements of IC50, one per entry

Worked cases, IC50 given:
[Q] Endpoint output: IC50 of COc1cc2c(cc1C(=O)Nc1cccc(-c3nncn3[C@H](C)CO)n1)CN(C(=O)c1ccc(F)cc1)CC2 . Value?
[A] 1.25 to 10 nM

[Q] Endpoint output: IC50 of CC(C)n1cnnc1-c1cccc(NC(=O)c2cc3c(cc2F)CCN(c2ncccn2)C3)n1 . Value?
[A] < 1.25 nM

[Q] Endpoint output: IC50 of COc1cc2c(cc1C(=O)Nc1cccc(-c3nnnn3C(C)C)n1)CN(C(=O)C(C)(C)C)CC2 . Value?
[A] < 1.25 nM

[Q] Endpoint output: IC50 of C[C@H](CO)n1cnnc1-c1cccc(NC(=O)c2cc3c(cn2)CCN(S(=O)(=O)c2ccccc2)C3)n1 . Value?
[A] < 1.25 nM

[Q] Endpoint output: IC50 of C[C@H](CO)n1cnnc1-c1cccc(NC(=O)c2cc3c(cc2F)CCN(S(=O)(=O)CCC(F)(F)F)C3)n1 . Value?
[A] < 1.25 nM

More entries:
[Q] Endpoint output: IC50 of COc1cc2c(cc1C(=O)Nc1cccc(-c3nnnn3C(C)C)n1)CN(C(=O)c1ccc(F)cc1)CC2 . Value?
[A] < 1.25 nM

[Q] Endpoint output: IC50 of C[C@H](CO)n1cnnc1-c1cccc(NC(=O)c2cc3c(cc2F)CCN(C)C3)n1 . Value?
[A] 1.25 to 10 nM

[Q] Endpoint output: IC50 of CCOC(=O)N1CCc2cc(OC)c(C(=O)Nc3cccc(-c4nnnn4C(C)C)n3)cc2C1 . Value?
[A] < 1.25 nM

[Q] Endpoint output: IC50 of COc1cc2c(cc1C(=O)Nc1cccc(-c3nnnn3[C@H](C)CO)n1)CN(C(=O)C(C)(C)C)CC2 . Value?
[A] < 1.25 nM

[Q] Endpoint output: IC50 of CC(C)n1cnnc1-c1cccc(NC(=O)c2cc3c(cn2)CCN(C(=O)N2CCCC2)C3)n1 . Value?
[A] < 1.25 nM

Origin of the recorded values: ChEMBL document CHEMBL5729134
